- Tested on: rodent lifetime carcinogenesis bioassay, tumor incidence TD50
- measurement_notes: carcinogenic potency in animals, long-term in vivo studies, CPDB compilation (AID 1745844)
- condition: rat; strain Fischer 344; males; in feed; site: colon + rectum; lesion: polypoid adenoma; dosed 66 weeks; study length 66 weeks
quantity_kind: TD50 (mg/kg/day)
Please respond with the number in mg/kg/day and leave the unit unwritten.

Ask: TD50 lookup needed for Nc1c(Br)cc(Br)c2c1C(=O)c1ccccc1C2=O , thanks.
Reply: 426

* * *

# TD50 per record follows
- Tested on: rodent lifetime carcinogenesis bioassay, tumor incidence TD50
- measurement_notes: carcinogenic potency in animals, long-term in vivo studies, CPDB compilation (AID 1745844)
- condition: mouse; strain B6C3F1; males; in feed; site: liver; lesion: hepatocellular adenoma + hepatocellular carcinoma + neoplastic nodule; dosed 103 weeks; study length 105 weeks
Please respond with the number in mg/kg/day and leave the unit unwritten.

Ask: TD50 lookup needed for CO[C@H]1[C@@H](O)[C@@H](CO)OC(OC2C3CO[C@H]2[C@H](O)C(C)O3)[C@@H]1O (some centres not stated) , thanks.
Reply: 33100

Ask: TD50 lookup needed for Nc1cccc2c(N)cccc12 , thanks.
Reply: 1640

Ask: TD50 lookup needed for Nc1nc(N)nc(N)n1 , thanks.
Reply: 4370

Ask: TD50 lookup needed for O=C1CCCCCN1 , thanks.
Reply: 34300

Ask: TD50 lookup needed for Oc1ccc2ccccc2c1N=Nc1ccccc1 , thanks.
Reply: 587

Ask: TD50 lookup needed for Nc1ccc(O)c([N+](=O)[O-])c1 , thanks.
Reply: 2250

Ask: TD50 lookup needed for OB(O)O , thanks.
Reply: 638

* * *

- Tested on: rodent lifetime carcinogenesis bioassay, tumor incidence TD50
- measurement_notes: carcinogenic potency in animals, long-term in vivo studies, CPDB compilation (AID 1745844)
- condition: rat; strain Fischer 344; males; in feed; site: body cavities; lesion: mesothelioma, NOS; dosed 105 weeks; study length 105 weeks
quantity_kind: TD50

Ask: TD50 lookup needed for CCN(CC)C(=S)S[Te](SC(=S)N(CC)CC)(SC(=S)N(CC)CC)SC(=S)N(CC)CC , thanks.
Reply: 181 mg/kg/day

* * *

- System: rodent lifetime carcinogenesis bioassay, tumor incidence TD50
- measurement_notes: carcinogenic potency in animals, long-term in vivo studies, CPDB compilation (AID 1745844)
- condition: monkey; strain Rhesus [Macaca mulatta]; both sexes; in feed; site: oral cavity; lesion: several types; types named in the paper; dosed 928 weeks; study length 1139 weeks
quantity_kind: TD50 (mg/kg/day)
Please respond with the number in mg/kg/day and leave the unit unwritten.

Ask: TD50 lookup needed for CN(N=O)C(N)=O , thanks.
Reply: 15.7

* * *

- Test system: rodent lifetime carcinogenesis bioassay, tumor incidence TD50
- measurement_notes: carcinogenic potency in animals, long-term in vivo studies, CPDB compilation (AID 1745844)
- condition: mouse; strain B6C3F1; males; in feed; site: lung; lesion: alveolar/bronchiolar adenoma + alveolar/bronchiolar carcinoma; dosed 78 weeks; study length 96 weeks
quantity_kind: TD50
Answer with the figure and its unit, nothing else.

Ask: API: value(readout=TD50, system=rodent lifetime carcinogenesis bioassay, tumor incidence TD50) for record COc1ccc(N)cc1N
Reply: 2560 mg/kg/day

* * *

- Test system: rodent lifetime carcinogenesis bioassay, tumor incidence TD50
- measurement_notes: carcinogenic potency in animals, long-term in vivo studies, CPDB compilation (AID 1745844)
- condition: mouse; strain CFLP; males; in feed; site: liver; lesion: hepatocellular carcinoma; dosed 96 weeks; study length 96 weeks
The source made the active and inactive calls. How the calls were made is not given here.
quantity_kind: TD50

Ask: TD50 lookup needed for S=C([S-])NCCNC(=S)[S-].[Zn+2] , thanks.
Reply: 3700 mg/kg/day (inactive)
